// data source = patent US8993566B2

system: human nonsmall-cell lung cancer cell H460; assay: In vitro anti-tumor cell activity (MTT), H460; type: cell-based; settings: H460 cells, MTT, 72 h, Bliss method
outcome-measure: H460 IC50 (µg/mL)
Express it in µg/mL; write the number only.

smi: C=CCn1c(=O)c(C(=O)Nc2ccc(Oc3ccnc4cc(OCCCN5CCCC5)c(OC)cc34)c(F)c2)nn(-c2ccc(Cl)cc2)c1=O
unit-of-measure: µg/mL
H460 IC50: 1.4
--
smi: C=CCn1c(=O)c(C(=O)Nc2ccc(Oc3ccnc4cc(OCCCN5CCOCC5)c(OC)cc34)c(F)c2)nn(-c2ccc(Br)cc2)c1=O
unit-of-measure: µg/mL
H460 IC50: 1.4

The compound COc1cc2c(Oc3ccc(NC(=O)c4nn(-c5ccc(Cl)cc5)c(=O)n(C)c4=O)cc3F)ccnc2cc1OCCCN1CCCCC1 showed H460 IC50 equal to 0.15
